target-system: OsWOX13 (Oryza sativa, UniProt Q5QMM3 1-267)
Sequence: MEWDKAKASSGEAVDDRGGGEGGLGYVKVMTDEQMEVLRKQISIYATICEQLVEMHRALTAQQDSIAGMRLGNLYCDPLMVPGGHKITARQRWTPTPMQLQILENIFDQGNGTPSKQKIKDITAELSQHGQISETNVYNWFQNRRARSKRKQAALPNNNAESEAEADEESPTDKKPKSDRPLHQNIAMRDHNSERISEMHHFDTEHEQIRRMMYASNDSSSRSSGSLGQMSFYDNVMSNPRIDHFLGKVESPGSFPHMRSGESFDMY
assay-explanation: protein-binding microarray (RPBM); PBS, 2% BSA, 51.3 ng/ul salmon testes DNA, 50 uM zinc acetate, 200 nM TF, 25 C, 1 h; high values mean tight binding
details: protein: recombinant; tags: N-terminal polyhistidine and DsRed monomer fusion (pET32a); label: CyDye5-dUTP incorporated in the synthesized complementary strand; 3' TTTTT single-stranded linker to array surface; dsDNA, one strand shown
The full ranking holds about 35,000 sequences; the median of “fluorescence intensity (a.u.)” is about 10,000, and the highest 2% start at about 52,000. The sample holds the highest values, similar sequences and a random draw of the others, so the mix is not that of the screen.
readout: binding signal

sequence-record	binding signal
AGAGACAGCGAATCAATTAGCCAATGCTAATAATTTATAACGGAGTCACCTAGTGCAG	8160 fluorescence intensity (a.u.)
AATTAATAAAATAAATCTATTACAGTTAACTAAAGGTATTCGGAGTCACCTAGTGCAG	5780 fluorescence intensity (a.u.)
ATTAATTATTAATTTACTTTTGACAATTACTAATTAGCCACGGAGTCACCTAGTGCAG	56700 fluorescence intensity (a.u.)
TCCAATTTACTAATTACCACTTTATACGTACAATTATTGACGGAGTCACCTAGTGCAG	23500 fluorescence intensity (a.u.)
CCACTTTTAGATTTGACAATTAACTATTTGTCACTTTTAGCGGAGTCACCTAGTGCAG	23600 fluorescence intensity (a.u.)

// field: binding signal; key: AGCCCCTAAGCCAATCAATTAGCAGGCATCTTTACTCCTACGGAGTCACCTAGTGCAG ; value = 18500 fluorescence intensity (a.u.)

Please fill in: binding signal reported for ATTAATTAATTAGTCGGCCAACCTAGCTGTTGACTGGGAACGGAGTCACCTAGTGCAG = 55900 fluorescence intensity (a.u.)

Entry GCCAACCTTATAGCTAATTATTATATATATTGACTTTAAGCGGAGTCACCTAGTGCAG , binding signal reported as 4860 fluorescence intensity (a.u.)

# binding signal of AAAATTACAGTCTTATTTAACTAAAATTACATATGTAAATCGGAGTCACCTAGTGCAG = 5170 fluorescence intensity (a.u.)

----------
target-system: OsWOX13 (Oryza sativa, UniProt Q5QMM3 1-267)
Sequence: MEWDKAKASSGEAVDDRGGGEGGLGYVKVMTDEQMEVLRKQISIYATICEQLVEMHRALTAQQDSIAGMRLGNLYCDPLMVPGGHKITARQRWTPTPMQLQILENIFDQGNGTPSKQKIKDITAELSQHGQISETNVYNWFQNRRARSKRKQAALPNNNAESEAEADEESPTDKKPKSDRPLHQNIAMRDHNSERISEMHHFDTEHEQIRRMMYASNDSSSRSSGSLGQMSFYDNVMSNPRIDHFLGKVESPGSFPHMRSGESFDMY
assay-explanation: protein-binding microarray (RPBM); PBS, 2% BSA, 51.3 ng/ul salmon testes DNA, 50 uM zinc acetate, 200 nM TF, 25 C, 1 h; high values mean tight binding
details: protein: recombinant; tags: N-terminal polyhistidine and DsRed monomer fusion (pET32a); label: CyDye5-dUTP incorporated in the synthesized complementary strand; 3' TTTTT single-stranded linker to array surface; dsDNA, one strand shown
Over roughly 35,000 sequences, “fluorescence intensity (a.u.)” has its median near 10,000; the highest 2% begin near 52,000. Shown is part of a subset that was picked to be rich in the highest values.
Examples of sequences with documented binding signal follow.

Example cases with answers are listed next.
sequence-record	binding signal
CCATGATGATGAGTCATTTTAACAGTCTGCAAGTACTAAACGGAGTCACCTAGTGCAG	8500 fluorescence intensity (a.u.)
AATCAATCAATTAGTTAGAGATCAAGTTATTAGTGTCCAACGGAGTCACCTAGTGCAG	31100 fluorescence intensity (a.u.)
TCTTAATTGAAAGAGTTTTCATCATGTCTTTCAGTCACCACGGAGTCACCTAGTGCAG	53900 fluorescence intensity (a.u.)
GTCACATCATTCTAATTTCAATTAAACTTCAAATTTTGGCCGGAGTCACCTAGTGCAG	12900 fluorescence intensity (a.u.)
GAGTTTAATTAATTAATTTCTTAAAATTGATGTCATCACACGGAGTCACCTAGTGCAG	54800 fluorescence intensity (a.u.)
TTAGTTTAATTAAATGTAACATTGAGTATATTTTGATAATCGGAGTCACCTAGTGCAG	16700 fluorescence intensity (a.u.)
TTGATTGGGAGGAAGCCAAGAAGAAGTCAAGAACTGCCCACGGAGTCACCTAGTGCAG	31900 fluorescence intensity (a.u.)
CAAAATTATCTAATTGATGACTATTTCTAAATACACATCACGGAGTCACCTAGTGCAG	41800 fluorescence intensity (a.u.)
AGGAATATATATAATTTACAAATAACTAAAATTTGATATTCGGAGTCACCTAGTGCAG	4110 fluorescence intensity (a.u.)
GATAATGGCCCTTAAATTGATTGCAACTCACGGTGATACACGGAGTCACCTAGTGCAG	44800 fluorescence intensity (a.u.)

Reported binding signal for ACTTTTCAGTTACATCATCTCTAATTTCAATTGAAATCCACGGAGTCACCTAGTGCAG was 7120 fluorescence intensity (a.u.)

get_value(item= GTGCTGTGATTGGCCGCGCGGGATTTCCTGGGCGGGCGGGCGGAGTCACCTAGTGCAG , readout=binding signal) returns 22600 fluorescence intensity (a.u.)

Short answer for GTTTAGGACCTTTGATTTGTTGGTGACAGAACCCAAGGCGCGGAGTCACCTAGTGCAG : binding signal was 6360 fluorescence intensity (a.u.)

Consider CAAGAAATGACTTAATTAGAAAACCTCTTTGGAGCACCCACGGAGTCACCTAGTGCAG . Its measured binding signal is 11000 fluorescence intensity (a.u.)

Noted for AATTAGTAAATACTTAATTAATCATGAGAAAATGTATTGCCGGAGTCACCTAGTGCAG : its binding signal reads 3350 fluorescence intensity (a.u.)

Please fill in: binding signal reported for GTGCTTTAATCAGTAATTTTGCAATTGCTTTTGAATTTCACGGAGTCACCTAGTGCAG = 5640 fluorescence intensity (a.u.)

The sequence listed as TCTCCAAGATTGATCCGCATCTCCAACTAAACCCTCTCCTCGGAGTCACCTAGTGCAG shows binding signal equal to 7230 fluorescence intensity (a.u.)

Lab note: AGTAATTTAAACACGAAAACATTTCTTATTGACAAGAATACGGAGTCACCTAGTGCAG gave binding signal of 4230 fluorescence intensity (a.u.)

binding signal measured on TCGCTTTGATTGACACTAAGAACCTCGCTGCGCATCTCGTCGGAGTCACCTAGTGCAG = 58600 fluorescence intensity (a.u.)

----------
target-system: OsWOX13 (Oryza sativa, UniProt Q5QMM3 1-267)
Sequence: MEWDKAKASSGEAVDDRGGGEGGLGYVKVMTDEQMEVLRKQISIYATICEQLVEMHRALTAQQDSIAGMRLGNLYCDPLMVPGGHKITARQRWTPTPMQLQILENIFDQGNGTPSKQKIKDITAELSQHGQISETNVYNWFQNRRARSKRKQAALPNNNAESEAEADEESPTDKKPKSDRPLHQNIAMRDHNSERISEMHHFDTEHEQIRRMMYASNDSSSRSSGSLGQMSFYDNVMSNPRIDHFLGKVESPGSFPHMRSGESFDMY
assay-explanation: protein-binding microarray (RPBM); PBS, 2% BSA, 51.3 ng/ul salmon testes DNA, 50 uM zinc acetate, 200 nM TF, 25 C, 1 h; high values mean tight binding
details: protein: recombinant; tags: N-terminal polyhistidine and DsRed monomer fusion (pET32a); label: CyDye5-dUTP incorporated in the synthesized complementary strand; 3' TTTTT single-stranded linker to array surface; dsDNA, one strand shown
The full ranking holds about 35,000 sequences; the median of “fluorescence intensity (a.u.)” is about 10,000, and the highest 2% start at about 52,000. What follows is part of a selection rich in the highest values, with near analogues and random picks from the rest.
readout: binding signal

The cases that follow already have their binding signal on record.
sequence-record	binding signal
TGTTAAATTATATCTAAGGAAACCGGTTTTGATTTCCTTCCGGAGTCACCTAGTGCAG	11100 fluorescence intensity (a.u.)
CGGCTAATTAATTTATATTTCTATATGTATTGACCCTGTTCGGAGTCACCTAGTGCAG	61100 fluorescence intensity (a.u.)
GCTAATTAATCTATTATTGATTTAGATGTATCGACCAGTTCGGAGTCACCTAGTGCAG	53500 fluorescence intensity (a.u.)
AGGATTGTTTCTGATGATTTGGGCCCGGAAAGACATAAGGCGGAGTCACCTAGTGCAG	7510 fluorescence intensity (a.u.)
TGATAATAATCTGTTCAATAATTTATCTTAAACAGGGCCTCGGAGTCACCTAGTGCAG	11200 fluorescence intensity (a.u.)

Measured binding signal for this entry CTTTAAACAGTTTGAGTGAATTTAGGGGTACATATTTCTGCGGAGTCACCTAGTGCAG on OsWOX13 (Oryza sativa, UniProt Q5QMM3 1-267): 6070 fluorescence intensity (a.u.)

The recorded binding signal with OsWOX13 (Oryza sativa, UniProt Q5QMM3 1-267) for ATAATGGATTGCTTGTTCCAGCACTGAATGTGCTGCCAAGCGGAGTCACCTAGTGCAG was 6550 fluorescence intensity (a.u.)

# binding signal measured on OsWOX13 (Oryza sativa, UniProt Q5QMM3 1-267) for item CTATTAAATTGATTATATATGATTTGTAGTTTATAGTTGGCGGAGTCACCTAGTGCAG = 65100 fluorescence intensity (a.u.)

OsWOX13 (Oryza sativa, UniProt Q5QMM3 1-267) binding signal of TATAAATTTAGTTAAATATATATAAAGAAGTTTGACTTATCGGAGTCACCTAGTGCAG is 9160 fluorescence intensity (a.u.)

Reference source for all entries: paper PMC7819943
